# Test system: HEK293T (UBE3A T485A transfected, BAR Wnt reporter)
# Assay summary: Wnt reporter firefly/Renilla luciferase ratio relative to plate median (fold (linear ratio)); higher = more Wnt/beta-catenin reporter activation
# Condition details: concentration: 0.01 uM; 24 h
Whole data set: some 1,100 compounds, median “Wnt reporter firefly/Renilla luciferase ratio relative to plate median” near 1.1, cut for the highest 2% near 1.6. Many of the other results were omitted from the sample, so the highest values are more common in it than they were.
Class TRUE: Wnt reporter firefly/Renilla luciferase ratio at least 1. Class FALSE: Wnt reporter firefly/Renilla luciferase ratio below 1.

Example cases with answers are listed next.
Molecule: Clc1ccccc1-c1nnc(-c2ccccc2Cl)nn1
Category label: TRUE
--
Molecule: CCOP(=O)(OCC)Oc1nc(Cl)c(Cl)cc1Cl
Category label: FALSE
--
Molecule: CC(Oc1ccc(Cl)cc1Cl)C(=O)O (configuration not stated)
Category label: TRUE

State whether the measured Wnt reporter firefly/Renilla luciferase ratio reaches 1, counting equality as reaching it, for C#CCC1=C(C)C(OC(=O)C2C(C=C(C)C)C2(C)C)CC1=O (configuration not stated)
FALSE

Please tell me: is the molecule CCCC1COC(Cn2cncn2)(c2ccc(Cl)cc2Cl)O1 (configuration not stated) at or over 1 in terms of Wnt reporter firefly/Renilla luciferase ratio?
FALSE

Confirm if Wnt reporter firefly/Renilla luciferase ratio reported for the molecule COC(=O)c1c(C(F)F)nc(C(F)(F)F)c(C2=NCCS2)c1CC(C)C is 1 or above.
FALSE

These data points were gathered from the supplement of paper PMC9254222.
